Tested on: MS2 coat protein
procedure_text: apparent KD of MS2 coat protein; designed switch direction (-1 OFF switch, 1 ON switch): 1; higher = weaker reporter binding
measurement_parameters: Eterna round: R98; input ligand: none
If the reported apparent KD of MS2 coat protein equals or exceeds 500 nM, assign Met. If not, assign Not met.

[
  {
    "residue_string": "GUAGCAUACCGAGGAUAUUCAUACCGGAAACGGACAUGAGGAUCACCCAUGUAAAUUCUAAAUUGGGAGAAGGCGGAAUGCUAC [Xeonanis 75 6]",
    "assigned_category": "Not met"
  },
  {
    "residue_string": "AAUAAUCAGGUAGGAUAUGCUCAGGAAUACUGAGCAGAAGGACUAGAAACCUGAGGAUCACCCAGGUAACUGGACCGGAAACGG [Same State NG1 - A3C, U17G Submission 6C]",
    "assigned_category": "Not met"
  },
  {
    "residue_string": "GCCAACUUAUGAGGAUAUGGCACCUUAUUGGUGCCAGAAGGCAUGUCAAUUGACAUGAGGAUCACCCAUGUAUUAUAGUUGGCA [Fiskers NG1ss - 20 m2]",
    "assigned_category": "Met"
  },
  {
    "residue_string": "GGUUGACGACAAUUACAUGAGGAUCACCCAUGUUGUGGGAUGCAGGAUAUGUGGUAUAUUAAUUAACAGAAGGGCAAUAAUUUU [JR_SSNG3_Sub062]",
    "assigned_category": "Not met"
  },
  {
    "residue_string": "UCCGCUAUCGCAGGAUAUUACAUGGGAAAGAAUACAUGAGGAUCACCCAUGUAAAAGAUCAUAAAUAAGAAGGGCGAUAGCGGA [Lame State 8 - Jieux - Same State NG 2]",
    "assigned_category": "Met"
  }
]

Data provenance is the supplement of paper PMC9170038.
